system: LTC4; assay: Antagonism in isolated guinea-pig trachea, Test method (i) (Table 3, given as LTC4 antagonism); format: cell-based; details: Cavia porcellus, 5 min, test compound 10^-5 g/ml, given as LTC4 antagonisms
QUANTITY_KIND: inhibition at 10 µg/mL (%)
Give your result in % as a bare value.

Which inhibition at 10 µg/mL is reported for this compound? CC(C)(C)n1ncc(OCCCOc2ccc(C(=O)O)cc2Cl)c(Cl)c1=O
15

Moving on to the next compound: CCCCc1cc(C(N)=O)ccc1OCCCNc1cnn(CC)c(=O)c1Cl
94

Further, for CCCc1cc(C#N)ccc1OCCCNc1cnn(CC)c(=O)c1Cl ?
99
